Where do these numbers come from? They come from ChEMBL document CHEMBL1139509.

tested on: Coxsackievirus; assay: Inhibitory concentration against Coxsackievirus B4; assay type: functional, organism-based, Viruses
readout-type: pIC50
The value called pIC50 is obtained by taking minus log10 of the concentration in mol/L.

Worked cases, answers included:
CC(CCOc1ccc(-c2ccc(Cl)cc2)cc1)CCN1CCN(c2ccncc2)C1=O (stereo not drawn) : 5.91
CCn1nnc(-c2ccc(OCCC(C)CCN3CCN(c4ccncc4)C3=O)cc2)n1 (stereo not drawn) : 5.56

Consider the additional compound presented here.
Problem: Suppose we examine the compound CCc1nc(-c2ccc(OCCC(C)CCN3CCN(c4ccncc4)C3=O)cc2)no1 (stereo not drawn) ; what pIC50 value has been reported?
Solution: 5.90

----------
experiment: Cytotoxicity against human rhabdomyosarcoma cells; format: cell-based
readout-type: CC50

Worked cases, answers included:
CC(CCCN1CCN(c2ccncc2)C1=O)COc1ccc(-c2ccc(Cl)cc2)cc1 (stereo not drawn) : > 25 µM
CN(CCOc1ccc(-c2ccc(Cl)cc2)cc1)CCN1CCN(c2ccncc2)C1=O : 25 µM
O=C1N(CCC(CCOc2ccc(-c3ccc(Cl)cc3)cc2)c2ccccc2)CCN1c1ccncc1 (stereo not drawn) : > 25 µM
CC(CCOc1ccc(-c2nnn(C)n2)cc1)CCN1CCN(c2ccncc2)C1=O (stereo not drawn) : > 25 µM
CC(C)(CCCN1CCN(c2ccncc2)C1=O)COc1ccc(-c2ccc(Cl)cc2)cc1 : > 25 µM
CCn1nnc(-c2ccc(OCCC(C)CCN3CCN(c4ccncc4)C3=O)cc2)n1 (stereo not drawn) : > 12.5 µM

Problem: Suppose we examine the compound Cc1ccc(CN(CCOc2ccc(-c3ccc(Cl)cc3)cc2)CCN2CCN(c3ccncc3)C2=O)cc1 ; what CC50 value has been reported?
Solution: > 12.5 µM

Problem: Suppose we examine the compound CC(C)(CCOc1ccc(-c2ccc(Cl)cc2)cc1)CCN1CCN(c2ccncc2)C1=O ; what CC50 value has been reported?
Solution: > 25 µM

----------
system: Enterovirus; assay: In vitro inhibitory concentration against human enterovirus EV71-4643 strain; format: functional, organism-based, Enterovirus A71
readout-type: IC50

Worked cases, answers included:
Cc1ccc(CN(CCOc2ccc(-c3ccc(Cl)cc3)cc2)CCN2CCN(c3ccncc3)C2=O)cc1 : > 12.5 µM
O=C1N(CCC(CCOc2ccc(-c3ccc(Cl)cc3)cc2)c2ccccc2)CCN1c1ccncc1 (stereo unspecified) : > 25 µM
O=C1N(CCN(CCOc2ccc(-c3ccc(Cl)cc3)cc2)Cc2ccc(Cl)cc2)CCN1c1ccncc1 : > 25 µM
O=C1N(Cc2ccc(COc3ccc(-c4ccc(Cl)cc4)cc3)cc2)CCN1c1ccncc1 : > 1.25 µM
O=C1N(Cc2ccccc2COc2ccc(-c3ccc(Cl)cc3)cc2)CCN1c1ccncc1 : > 1.25 µM

Consider the additional molecule presented here.
Problem: Suppose we examine the molecule O=C1N(Cc2cccc(COc3ccc(-c4ccc(Cl)cc4)cc3)n2)CCN1c1ccncc1 ; what IC50 value has been reported?
Solution: > 25 µM

----------
test system: Enterovirus; test: In vitro inhibitory concentration against human enterovirus EV71-4643 strain; assay type: functional, organism-based, Enterovirus A71
readout-type: IC50

Worked cases, answers included:
O=C1N(CCC2(CCOc3ccc(-c4ccc(Cl)cc4)cc3)CCCCC2)CCN1c1ccncc1 : > 25 µM
O=C1N(CCN(CCOc2ccc(-c3ccc(Cl)cc3)cc2)Cc2ccccc2)CCN1c1ccncc1 : > 5 µM

Consider the additional compound presented here.
Problem: Suppose we examine the compound O=C1N(CCC(CCOc2ccc(-c3ccc(Cl)cc3)cc2)Cc2ccccc2)CCN1c1ccncc1 (stereo not drawn) ; what IC50 value has been reported?
Solution: > 10 µM

----------
assay: Cytotoxicity against human rhabdomyosarcoma cells; format: cell-based
Let's look at some compounds and their measured CC50.

Worked cases, answers included:
CC(CCCOc1ccc(-c2ccc(Cl)cc2)cc1)CN1CCN(c2ccncc2)C1=O (stereo not drawn) : > 25 µM
CC(C)C(CCOc1ccc(-c2ccc(Cl)cc2)cc1)CCN1CCN(c2ccncc2)C1=O (stereo not drawn) : > 25 µM

Consider the additional compound presented here.
Problem: Suppose we examine the compound CCC(CCOc1ccc(-c2ccc(Cl)cc2)cc1)CCN1CCN(c2ccncc2)C1=O (stereo not drawn) ; what CC50 value has been reported?
Solution: > 25 µM
